Data credit: patent US9090570B2

Test system: IL-2 production
TEST_NAME: Inhibition of IL-2 production in PHA-activated Jurkat cells (ELISA)
Format: cell-based
EXPERIMENTAL_SETUP: Homo sapiens, PHA 2.5 μg/mL, 20 hours, IL-2 ELISA
# class 1 = IC50 below 0.05 µM (exclusive); class 0 = IC50 at/above 0.05 µM

Task: Is IC50 strictly under 0.05 µM for the entry O=C(Nc1cnc(-c2cc(C(F)(F)F)ccc2Cl)cn1)c1ccncc1F ?
Output: class 0

Task: Now the same for O=C(Nc1ccc(-c2cc(C(F)(F)F)ccc2Cl)nn1)c1c(F)cccc1F
Output: class 0

Task: // query: Cc1ncccc1C(=O)Nc1cnc(-c2cc(C(F)(F)F)ccc2Cl)cn1
Output: class 0

Task: Same read-out for Cc1ccc(-c2ncco2)cc1-c1cnc(NC(=O)c2c(F)cncc2F)cn1 ?
Output: class 1

***
Task: For COc1ccc(OC)c(-c2cnc(NC(=O)c3c(F)cncc3F)cn2)c1 , is the recorded IC50 below the cut-off of 0.05 µM?
Output: class 1

Task: Also need O=C(Nc1cnc(-c2cc(C(F)(F)F)ccc2Cl)cn1)C1CCCCC1 , thanks.
Output: class 1

Task: Same again, this time with COc1ccc(OC)c(-c2cnc(NC(=O)c3c(F)cccc3F)cn2)c1
Output: class 1

Task: Input Cc1cnccc1C(=O)Nc1cnc(-c2cc(-c3ncco3)ccc2C)cn1
Output: class 1
